Values were extracted from patent US20060004086A1.

tested on: Aβ42 secretion; assay: Primary in vitro screen, CHO-APP695NL,I,his cells, end-specific Aβ40 and Aβ42 ELISAs; format: cell-based, Chinese hamster; conditions: Cricetulus griseus, 6 h; 10 μM; six-hour culture supernatants; read-out: % Control Aβ42
ENDPOINT NAME: activity at 10 µM
State the value, then name its unit.

| MOLECULE | activity at 10 µM |
| --- | --- |
| Cc1ccc(Cl)c(Nc2ccccc2C(=O)O)c1Cl [Meclofenamic acid, meclofenamic acid] | 13% |

Ask: Would you kindly share the measured activity at 10 µM for O=C(O)c1ccccc1Nc1cccc(C(F)(F)F)c1 [Flufenamic Acid, flufenamic acid] ?
Reply: 64%

---

system: Aβ42 secretion; experiment: Primary in vitro screen, CHO-APP695NL,I,his cells, end-specific Aβ40 and Aβ42 ELISAs; format: cell-based, Chinese hamster; settings: Cricetulus griseus, 6 h; 10 μM; six-hour culture supernatants; read-out: % Control % Aβ42
ENDPOINT NAME: activity at 10 µM (%)
# number only, unit % dropped from output

Some compounds with known activity at 10 µM results, for comparison:
| COMPOUND | UNIT ABBREVIATION | activity at 10 µM |
| --- | --- | --- |
| Cc1ccc(Cl)c(Nc2ccccc2C(=O)O)c1Cl | % | 37 |
| O=C(O)c1ccccc1Nc1cccc(C(F)(F)F)c1 | % | 70 |
| Oc1ccc(C=Cc2cc(O)cc(O)c2)cc1 | % | 130 |
| O=C(O)c1cc([N+](=O)[O-])ccc1NCCCc1ccccc1 | % | 66 |

Alright, here's another compound for you.
Ask: activity at 10 µM lookup needed for CC(C)Cc1ccc(C(C)C(=O)O)cc1 (centres unmarked) , thanks.
Reply: 82

---

test system: Aβ42 secretion; assay: Primary in vitro screen, CHO-APP695NL,I,his cells, end-specific Aβ40 and Aβ42 ELISAs; assay type: cell-based, Chinese hamster; conditions: Cricetulus griseus, 6 h; 100 μM; six-hour culture supernatants; read-out: % Control Aβ40
ENDPOINT NAME: activity at 100 µM (%)
Output spec: scalar in %, unitless text.

| MOLECULE | TEST SYSTEM | ENDPOINT NAME | MEAS VALUE |
| --- | --- | --- | --- |
| CCc1cccc2c3c([nH]c12)C(CC)(CC(=O)O)OCC3 (stereo not shown) | Aβ42 secretion | activity at 100 µM | 85 |
| CC(=O)Oc1ccccc1C(=O)O | Aβ42 secretion | activity at 100 µM | 93 |
| Cc1c(Cl)cccc1Nc1ccccc1C(=O)O | Aβ42 secretion | activity at 100 µM | 84 |
| CC(C(=O)O)c1ccc(C(=O)c2cccs2)cc1 (stereo not shown) | Aβ42 secretion | activity at 100 µM | 126 |
| CN1C(C(=O)Nc2ccccn2)=C(O)c2sccc2S1(=O)=O | Aβ42 secretion | activity at 100 µM | 80 |
| CN(C)CCCOc1nn(Cc2ccccc2)c2ccccc12 | Aβ42 secretion | activity at 100 µM | 90 |

Ask: Give the measured activity at 100 µM of `Cc1cccc(Nc2ccccc2C(=O)O)c1C` .
Reply: 116

Ask: For CC(C(=O)O)c1ccc2c(c1)[nH]c1ccc(Cl)cc12 (stereo not shown) then?
Reply: 58

Ask: Would you mind doing CC(C)Cc1ccc(C(C)C(=O)O)cc1 (stereo not shown) as well?
Reply: 95

Ask: Also need CC(C(=O)O)c1cccc(C(=O)c2ccccc2)c1 (stereo not shown) , thanks.
Reply: 88
